- System: ATP phosphoribosyltransferase (HisG)
- assay-info: Degree of inhibition by L-histidine on activities of ATP phosphoribosyltransferase variants
- Assay type: biochemical, Corynebacterium glutamicum
- test-settings: L-histidine 100 mM
property-measured: Activity of Enzyme, 100 mM L-histidine (U/mg)
Numbers only, in U/mg.

molecule="HisG (N215R/G233H/T235Q): ATP phosphoribosyltransferase variant N215R/G233H/T235Q, SEQ ID NO: 1 (protein, HisG) MLKIAVPNKGSLSERAMEILAEAGYAGRGDSKSLNVFDEANNVEFFFLRPKDIAIYVAGGQLDLGITGRDLARDSQADVHEVLSLGFGSSTFRYAAPADEEWSIEKLDGKRIATSYPNLVRDDLAARGLSAEVLRLDGAVEVSIKLGVADAIADVVSTGRTLRQQGLAPFGEVLCTSEAVIVGRKDEKVTPEQQILLRRIQGILHAQNFLMLDYRVDRDNLDAATAVTPGLSHPQVSPLARDNWVAVRAMVPRRSANAIMDKLAGLGAEAILASEIRIARI" number=1.335
molecule="HisG (N215K/G233H/T235Q): ATP phosphoribosyltransferase variant N215K/G233H/T235Q (protein) MLKIAVPNKGSLSERAMEILAEAGYAGRGDSKSLNVFDEANNVEFFFLRPKDIAIYVAGGQLDLGITGRDLARDSQADVHEVLSLGFGSSTFRYAAPADEEWSIEKLDGKRIATSYPNLVRDDLAARGLSAEVLRLDGAVEVSIKLGVADAIADVVSTGRTLRQQGLAPFGEVLCTSEAVIVGRKDEKVTPEQQILLRRIQGILHAQNFLMLDYKVDRDNLDAATAVTPGLSHPQVSPLARDNWVAVRAMVPRRSANAIMDKLAGLGAEAILASEIRIARI" number=0.413

Continue with the next molecule.
Challenge: Recorded Activity of Enzyme, 100 mM L-histidine of HisG (N215R/L231F/T235A): ATP phosphoribosyltransferase variant N215R/L231F/T235A (protein) MLKIAVPNKGSLSERAMEILAEAGYAGRGDSKSLNVFDEANNVEFFFLRPKDIAIYVAGGQLDLGITGRDLARDSQADVHEVLSLGFGSSTFRYAAPADEEWSIEKLDGKRIATSYPNLVRDDLAARGLSAEVLRLDGAVEVSIKLGVADAIADVVSTGRTLRQQGLAPFGEVLCTSEAVIVGRKDEKVTPEQQILLRRIQGILHAQNFLMLDYRVDRDNLDAATAVTPGFSGPAVSPLARDNWVAVRAMVPRRSANAIMDKLAGLGAEAILASEIRIARI , please.
Response given: 0
